Tested on: Vero cells
Method summary: Cytotoxicity in Vero cells
Type: cell-based, African Green monkey
Measure: Toxicity in Vero cells (in words)

Cc1ccc(CNC(=O)Cn2nc3c(c2C)N(C)S(=O)(=O)c2ccccc2-3)cc1 = no toxicity
COc1ccccc1CNC(=O)Cn1nc2c(c1C)N(C)S(=O)(=O)c1ccccc1-2 = no toxicity
COc1ccc(CNC(=O)Cn2nc3c(c2C)N(C)S(=O)(=O)c2ccccc2-3)cc1 = no toxicity
COc1cccc(CNC(=O)Cn2nc3c(c2C)N(C)S(=O)(=O)c2ccccc2-3)c1 = toxic

Which Toxicity in Vero cells (in words) is reported for this molecule? COc1cccc(NC(=O)Cn2nc3c(c2C)N(C)S(=O)(=O)c2ccccc2-3)c1 no toxicity

Which Toxicity in Vero cells (in words) is reported for this molecule? Cc1c2c(nn1CC(=O)NCc1ccccc1Br)-c1ccccc1S(=O)(=O)N2C toxic

###

Test system: CEM cells
Measure: Toxicity in CEM cells (in words)

Cc1c2c(nn1CC(=O)NCc1ccc(F)cc1)-c1ccccc1S(=O)(=O)N2C = toxic
COc1ccccc1CNC(=O)Cn1nc2c(c1C)N(C)S(=O)(=O)c1ccccc1-2 = no toxicity
Cc1ccc(CNC(=O)Cn2nc3c(c2C)N(C)S(=O)(=O)c2ccccc2-3)cc1 = no toxicity
COc1cccc(CNC(=O)Cn2nc3c(c2C)N(C)S(=O)(=O)c2ccccc2-3)c1 = toxic
Cc1c2c(nn1CC(=O)NCc1ccccc1Cl)-c1ccccc1S(=O)(=O)N2C = no toxicity

# value lookup — system CEM cells, readout Toxicity in CEM cells (in words), item Cc1c2c(nn1CC(=O)NCc1ccccc1Br)-c1ccccc1S(=O)(=O)N2C toxic

# value lookup — system CEM cells, readout Toxicity in CEM cells (in words), item COc1ccc(CNC(=O)Cn2nc3c(c2C)N(C)S(=O)(=O)c2ccccc2-3)cc1 no toxicity

###

Test system: primary human PBM cells
Method summary: Cytotoxicity in primary human PBM cells
Format: cell-based
Measure: Toxicity in primary human PBM cells (in words)

Below, 4 compounds whose answers are already recorded.
COc1ccc(CNC(=O)Cn2nc3c(c2C)N(C)S(=O)(=O)c2ccccc2-3)cc1 = no toxicity
Cc1ccc(CNC(=O)Cn2nc3c(c2C)N(C)S(=O)(=O)c2ccccc2-3)cc1 = no toxicity
COc1ccccc1CNC(=O)Cn1nc2c(c1C)N(C)S(=O)(=O)c1ccccc1-2 = no toxicity
COc1cccc(CNC(=O)Cn2nc3c(c2C)N(C)S(=O)(=O)c2ccccc2-3)c1 = toxic

Now for the compound whose Toxicity in primary human PBM cells (in words) we want.
Which Toxicity in primary human PBM cells (in words) is reported for this compound? Cc1c2c(nn1CC(=O)NCc1ccccc1Cl)-c1ccccc1S(=O)(=O)N2C no toxicity
